The reported measurements were obtained from ChEMBL document CHEMBL1140929.

Tested on: Liver
Assay: Biodistribution in NMRI mouse liver at 3.7 MBq/mL, iv after 2 mins by gamma counting
Type: ADME, organism-based
Details: in vivo
Assign Drug uptake to each entry below.
Please give a number only; it is taken to be in %ID.

Task item: Requested read-out: Drug uptake. Entry: Oc1ccc2nc(-c3ccc([18F])cc3)sc2c1
Reply: 28.1

Task item: Follow-up entry: [11CH3]Nc1ccc(-c2nc3ccc(O)cc3s2)cc1
Reply: 15.6

Task item: Would you mind doing Cc1ccc2nc(-c3ccc([18F])cc3)sc2c1 as well?
Reply: 24.8

Task item: And what about the compound COc1ccc2nc(-c3ccc([18F])cc3)sc2c1 ?
Reply: 19.9
